Could you please report measured Inhibitory Rate (%) for increase in ΔAUC of blood glucose for the items listed next?
Test system: increase in blood glucose level
protocol-notes: inhibitory action against increase in blood glucose level in rats (oral sucrose load)
Format: in vivo, SD-Strain rats
settings: per os, 1 ml/100 g of sucrose solution (2 g/10 ml) containing 30 mg test compound, 180 minutes after administration
# output: bare number, implied unit %

IN: Look at this compound and give its reported Inhibitory Rate (%) for increase in ΔAUC of blood glucose. OC[C@@H]1[C@@H](O[C@H]2O[C@H](CO)[C@@H](O)[C@H](O)[C@H]2O)[C@H](O)[C@@H](O)CN1CCOc1ccccc1 [Example 9]
OUT: 64.5

IN: Look at this compound and give its reported Inhibitory Rate (%) for increase in ΔAUC of blood glucose. OC[C@@H]1[C@@H](O[C@H]2O[C@H](CO)[C@@H](O)[C@H](O)[C@H]2O)[C@H](O)[C@@H](O)CN1CC=Cc1ccccc1 [Example 20]
OUT: 76.8

IN: Look at this compound and give its reported Inhibitory Rate (%) for increase in ΔAUC of blood glucose. OC[C@@H]1[C@@H](O[C@H]2O[C@H](CO)[C@@H](O)[C@H](O)[C@H]2O)[C@H](O)[C@@H](O)CN1CCc1ccccc1 [Example 19]
OUT: 54.0

IN: Look at this compound and give its reported Inhibitory Rate (%) for increase in ΔAUC of blood glucose. Cc1ccc(CN2C[C@H](O)[C@@H](O)[C@H](O[C@H]3O[C@H](CO)[C@@H](O)[C@H](O)[C@H]3O)[C@H]2CO)cc1 [Example 1]
OUT: 68.6

IN: Look at this compound and give its reported Inhibitory Rate (%) for increase in ΔAUC of blood glucose. CC(C)=CCN1C[C@H](O)[C@@H](O)[C@H](O[C@H]2O[C@H](CO)[C@@H](O)[C@H](O)[C@H]2O)[C@H]1CO [Example 3]
OUT: 73.2

IN: Look at this compound and give its reported Inhibitory Rate (%) for increase in ΔAUC of blood glucose. C=CCN1C[C@H](O)[C@@H](O)[C@H](O[C@H]2O[C@H](CO)[C@@H](O)[C@H](O)[C@H]2O)[C@H]1CO [Example 13]
OUT: 77.1

IN: Look at this compound and give its reported Inhibitory Rate (%) for increase in ΔAUC of blood glucose. OC[C@@H]1[C@@H](O[C@H]2O[C@H](CO)[C@@H](O)[C@H](O)[C@H]2O)[C@H](O)[C@@H](O)CN1CCCCOc1ccccc1 [Example 14]
OUT: 86.9

IN: Look at this compound and give its reported Inhibitory Rate (%) for increase in ΔAUC of blood glucose. OC[C@@H]1[C@@H](O[C@H]2O[C@H](CO)[C@@H](O)[C@H](O)[C@H]2O)[C@H](O)[C@@H](O)CN1CCc1ccccc1 [Example 6]
OUT: 69.9

IN: Look at this compound and give its reported Inhibitory Rate (%) for increase in ΔAUC of blood glucose. CCCCCCCCCN1C[C@H](O)[C@@H](O)[C@H](O[C@H]2O[C@H](CO)[C@@H](O)[C@H](O)[C@H]2O)[C@H]1CO [Example 17, hydrate]
OUT: 80.2

IN: Look at this compound and give its reported Inhibitory Rate (%) for increase in ΔAUC of blood glucose. CCCCCCN1C[C@H](O)[C@@H](O)[C@H](O[C@H]2O[C@H](CO)[C@@H](O)[C@H](O)[C@H]2O)[C@H]1CO [Example 5]
OUT: 94.8

IN: Look at this compound and give its reported Inhibitory Rate (%) for increase in ΔAUC of blood glucose. Cc1ccc(CN2C[C@H](O)[C@@H](O)[C@H](O[C@H]3O[C@H](CO)[C@@H](O)[C@H](O)[C@H]3O)[C@H]2CO)cc1 [Example 25]
OUT: 84.4

IN: Look at this compound and give its reported Inhibitory Rate (%) for increase in ΔAUC of blood glucose. COc1ccc(CN2C[C@H](O)[C@@H](O)[C@H](O[C@H]3O[C@H](CO)[C@@H](O)[C@H](O)[C@H]3O)[C@H]2CO)cc1 [Example 8]
OUT: 54.8
